Would you mind telling me the reported IC50 of each entry?
- studyTarget: Leucine-rich repeat serine/threonine-protein kinase 2 (Homo sapiens, UniProt Q5S007)
- Sequence (Q5S007 whole entry): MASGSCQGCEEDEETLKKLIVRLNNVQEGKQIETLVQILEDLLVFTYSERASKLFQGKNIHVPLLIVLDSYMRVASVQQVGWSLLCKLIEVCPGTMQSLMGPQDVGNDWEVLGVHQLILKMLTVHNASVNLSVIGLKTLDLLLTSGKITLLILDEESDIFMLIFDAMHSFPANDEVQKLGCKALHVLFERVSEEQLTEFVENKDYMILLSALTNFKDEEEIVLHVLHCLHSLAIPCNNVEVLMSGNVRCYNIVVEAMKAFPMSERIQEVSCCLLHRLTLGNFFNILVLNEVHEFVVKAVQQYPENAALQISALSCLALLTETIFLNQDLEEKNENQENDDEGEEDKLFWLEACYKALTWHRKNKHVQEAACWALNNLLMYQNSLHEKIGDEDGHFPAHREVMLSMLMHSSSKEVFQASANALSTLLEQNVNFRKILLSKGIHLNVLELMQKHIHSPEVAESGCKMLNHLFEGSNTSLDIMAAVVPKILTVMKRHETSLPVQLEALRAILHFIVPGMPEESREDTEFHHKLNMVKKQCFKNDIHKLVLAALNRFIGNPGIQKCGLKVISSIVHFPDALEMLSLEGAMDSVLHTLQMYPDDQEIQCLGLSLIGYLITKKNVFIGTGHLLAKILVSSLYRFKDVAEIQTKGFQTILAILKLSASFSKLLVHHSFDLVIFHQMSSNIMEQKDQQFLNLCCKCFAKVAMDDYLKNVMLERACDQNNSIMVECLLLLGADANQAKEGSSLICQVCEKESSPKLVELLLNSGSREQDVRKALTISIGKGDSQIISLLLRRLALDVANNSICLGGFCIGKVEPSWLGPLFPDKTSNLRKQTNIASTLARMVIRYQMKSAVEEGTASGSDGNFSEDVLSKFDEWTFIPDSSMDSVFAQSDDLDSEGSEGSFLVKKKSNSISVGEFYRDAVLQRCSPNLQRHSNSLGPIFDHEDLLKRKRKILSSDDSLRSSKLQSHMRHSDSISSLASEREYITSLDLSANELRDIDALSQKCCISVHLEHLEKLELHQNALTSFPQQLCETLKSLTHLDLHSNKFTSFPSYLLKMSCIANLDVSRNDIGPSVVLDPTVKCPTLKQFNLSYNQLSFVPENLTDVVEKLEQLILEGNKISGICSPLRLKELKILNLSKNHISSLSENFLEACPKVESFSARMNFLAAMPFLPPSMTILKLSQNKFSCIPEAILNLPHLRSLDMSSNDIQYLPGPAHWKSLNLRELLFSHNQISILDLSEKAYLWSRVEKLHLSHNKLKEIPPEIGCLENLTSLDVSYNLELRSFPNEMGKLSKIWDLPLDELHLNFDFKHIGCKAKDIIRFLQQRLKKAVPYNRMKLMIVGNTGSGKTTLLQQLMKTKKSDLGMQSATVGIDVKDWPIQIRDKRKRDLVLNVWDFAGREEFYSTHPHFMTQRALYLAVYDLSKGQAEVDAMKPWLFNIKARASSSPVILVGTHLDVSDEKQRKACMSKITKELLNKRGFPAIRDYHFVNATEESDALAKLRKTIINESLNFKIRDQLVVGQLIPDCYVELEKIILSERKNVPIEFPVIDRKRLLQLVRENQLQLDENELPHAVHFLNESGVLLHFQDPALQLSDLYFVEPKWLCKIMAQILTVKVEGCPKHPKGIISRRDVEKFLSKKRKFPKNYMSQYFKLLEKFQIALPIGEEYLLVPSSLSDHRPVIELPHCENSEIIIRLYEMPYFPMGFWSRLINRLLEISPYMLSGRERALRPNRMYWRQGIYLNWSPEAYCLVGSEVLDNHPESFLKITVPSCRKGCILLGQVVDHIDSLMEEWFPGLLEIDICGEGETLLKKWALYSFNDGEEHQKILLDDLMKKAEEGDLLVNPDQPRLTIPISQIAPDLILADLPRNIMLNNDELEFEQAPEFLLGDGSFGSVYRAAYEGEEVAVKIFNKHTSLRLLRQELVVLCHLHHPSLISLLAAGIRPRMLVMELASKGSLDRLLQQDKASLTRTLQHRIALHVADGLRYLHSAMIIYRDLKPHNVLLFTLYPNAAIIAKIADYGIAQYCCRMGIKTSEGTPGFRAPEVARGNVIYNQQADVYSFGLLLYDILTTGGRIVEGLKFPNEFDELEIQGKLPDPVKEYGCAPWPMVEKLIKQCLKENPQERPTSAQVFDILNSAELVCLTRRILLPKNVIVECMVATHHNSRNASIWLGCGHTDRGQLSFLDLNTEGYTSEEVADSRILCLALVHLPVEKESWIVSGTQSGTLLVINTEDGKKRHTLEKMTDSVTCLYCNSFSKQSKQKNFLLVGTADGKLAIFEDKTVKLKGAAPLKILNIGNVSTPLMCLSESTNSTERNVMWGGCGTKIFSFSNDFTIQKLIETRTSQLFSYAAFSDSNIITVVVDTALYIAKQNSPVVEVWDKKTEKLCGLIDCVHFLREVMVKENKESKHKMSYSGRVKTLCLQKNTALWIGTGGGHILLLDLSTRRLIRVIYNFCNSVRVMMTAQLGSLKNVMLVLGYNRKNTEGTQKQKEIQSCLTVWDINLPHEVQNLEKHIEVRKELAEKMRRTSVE
- procedureDetails: LRRK2 Wild-Type and G2019S Kinase Activity Assay
One number for each entry, in nM.

Please review the entries below; each comes with its answer.
compound	studyTarget	propertyMeasured	quantityUnit	assayResult
Cc1c2c(nn1[C@H]1CCOC3(CC3)C1)OCCCn1nc(Cl)c3cnc(nc31)N2	Leucine-rich repeat serine/threonine-protein kinase 2 (Homo sapiens, UniProt Q5S007)	IC50	nM	2.6
Cc1c2c(nn1[C@@H]1CCOC(C)(C)C1)OCCCn1nc(Cl)c3cnc(nc31)N2	Leucine-rich repeat serine/threonine-protein kinase 2 (Homo sapiens, UniProt Q5S007)	IC50	nM	17
Cc1c2c(nn1[C@H]1CCOC[C@@H]1C)OCCCn1nc(Cl)c3cnc(nc31)N2	Leucine-rich repeat serine/threonine-protein kinase 2 (Homo sapiens, UniProt Q5S007)	IC50	nM	44
Cc1c2c(nn1C1CCCCOC1)OCCCn1nc(Cl)c3cnc(nc31)N2 (configuration not stated)	Leucine-rich repeat serine/threonine-protein kinase 2 (Homo sapiens, UniProt Q5S007)	IC50	nM	12

# batch size: 3; output IC50 per entry
1. Clc1nn2c3nc(ncc13)Nc1c(nn([C@@H]3CCOC4(CC4)C3)c1Br)OCCC2
2. Cc1c2c(nn1C1CC3CCC(C1)O3)OCCCn1nc(Cl)c3cnc(nc31)N2 (configuration not stated)
3. Cc1c2c(nn1C13CC(C(N)=O)(C1)C3)OCCCn1nc(Cl)c3cnc(nc31)N2

### Response
1. 4.8
2. 13
3. 18

---

- studyTarget: Leucine-rich repeat serine/threonine-protein kinase 2 (Homo sapiens, UniProt Q5S007)
- procedureDetails: LRRK2 Wild-Type and G2019S Kinase Activity Assay
Define the label as yes when IC50 is strictly less than 0.01 µM and as no in all remaining cases.

### Prompt Is IC50 strictly under 0.01 µM for the entry CCc1c2c(nn1[C@H]1CCOCC1F)OCCCn1nc(Cl)c3cnc(nc31)N2 (some centres not stated) [US11780851, Example 56] ?
### Response yes

### Prompt Is IC50 strictly under 0.01 µM for the entry CCc1c2c(nn1[C@@H]1CCOCC1F)OCCCn1nc(Cl)c3cnc(nc31)N2 (some centres not stated) [US11780851, Example 55] ?
### Response yes

### Prompt Is IC50 strictly under 0.01 µM for the entry Clc1nn2c3nc(ncc13)Nc1c(nn([C@H]3CCOC4(CC4)C3)c1Br)OCCC2 [US11780851, Example 64] ?
### Response no

### Prompt Is IC50 strictly under 0.01 µM for the entry Cc1c([N+](=O)[O-])c(OCCCn2nc(Cl)c3cnc(Cl)nc32)nn1[C@H]1C[C@@H](C)O[C@@H](C)C1 [US11780851, Example 41] ?
### Response no

### Prompt Is IC50 strictly under 0.01 µM for the entry Cc1c2c(nn1CC1(C)COC1)OCCCn1nc(Cl)c3cnc(nc31)N2 [US11780851, Example 12] ?
### Response no

### Prompt Is IC50 strictly under 0.01 µM for the entry Cc1c2c(nn1[C@@H]1CCO[C@H](C)C1)OCCCn1nc(Cl)c3cnc(nc31)N2 [US11780851, Example 52] ?
### Response no

---

- studyTarget: Leucine-rich repeat serine/threonine-protein kinase 2 [G2019S] (Homo sapiens, UniProt Q5S007, G2019S)
- Sequence (Q5S007 whole entry G2019S): as the sequence (Q5S007 whole entry) above, with G2019S counted along it
- procedureDetails: LRRK2 Wild-Type and G2019S Kinase Activity Assay
Would you mind telling me the reported pIC50 of each entry?
Answers are plain numbers, as −log10 of the molar value.

# batch size: 8; output pIC50 per entry
1. Cc1c2c(nn1[C@H]1CCOC[C@@H]1C)OCCCn1nc(Cl)c3cnc(nc31)N2 [US11780851, Example 23]
2. Cc1c2c(nn1[C@@H]1CCOC[C@H]1C)OCCCn1nc(Cl)c3cnc(nc31)N2 [US11780851, Example 22]
3. Cc1c2c(nn1[C@@H]1CCOC[C@@H]1F)OCCCn1nc(Cl)c3cnc(nc31)N2 [US11780851, Example 32]
4. Cc1c2c(nn1[C@@H]1CCO[C@H](C)C1)OCCCn1nc(Cl)c3cnc(nc31)N2 [US11780851, Example 52]
5. Cc1c2c(nn1[C@@H]1CCO[C@@H](C)C1)OCCCn1nc(Cl)c3cnc(nc31)N2 [US11780851, Example 19]
6. Cc1c2c(nn1CC1(C)COC1)OCCCn1nc(Cl)c3cnc(nc31)N2 [US11780851, Example 12]
7. Cc1c2c(nn1[C@H]1CCOC[C@H]1C)OCCCn1nc(Cl)c3cnc(nc31)N2 [US11780851, Example 21]
8. Cc1c2c(nn1C1CCOC[C@@]1(C)F)OCCCn1nc(Cl)c3cnc(nc31)N2 (stereo not given in full) [US11780851, Example 47]

### Response
1. 7.70
2. 8.46
3. 8.21
4. 8.00
5. 8.41
6. 7.92
7. 8.43
8. 8.51

# batch size: 6; output pIC50 per entry
1. Cc1c2c(nn1C1C3COCC31)OCCCn1nc(Cl)c3cnc(nc31)N2 (stereo not given) [US11780851, Example 38]
2. Cc1c2c(nn1[C@@H]1CCCOC1)OCCCn1nc(Cl)c3cnc(nc31)N2 [US11780851, Example 61]
3. Cc1c2c(nn1[C@H]1CCCOC1)OCCCn1nc(Cl)c3cnc(nc31)N2 (single isomer, unassigned) [US11780851, Example 60]
4. Cc1c2c(nn1C1CCOCC1)OCCCn1nc(Br)c3cnc(nc31)N2 [US11780851, Example 6]
5. Cc1c2c(nn1[C@H]1CCOC3(CC3)C1)OCCCn1nc(Cl)c3cnc(nc31)N2 [US11780851, Example 54]
6. CCc1c2c(nn1[C@H]1CCOCC1F)OCCCn1nc(Cl)c3cnc(nc31)N2 (stereo not given in full) [US11780851, Example 56]

### Response
1: 7.96; 2: 8.66; 3: 8.05; 4: 8.66; 5: 9.06; 6: 8.70

# batch size: 2; output pIC50 per entry
1. Clc1nn2c3nc(ncc13)Nc1c(nn([C@H]3CCOC4(CC4)C3)c1Br)OCCC2 [US11780851, Example 64]
2. F[C@H]1COCC[C@@H]1n1nc2c(c1Br)Nc1ncc3c(Cl)nn(c3n1)CCCO2 [US11780851, Example 63]

### Response
8.30
8.40

---

- studyTarget: Leucine-rich repeat serine/threonine-protein kinase 2 (Homo sapiens, UniProt Q5S007)
- procedureDetails: LRRK2 Wild-Type and G2019S Kinase Activity Assay
pIC50: −log10 of the molar value.
Returns yes if the recorded pIC50 is greater than or equal to 8, and no otherwise.

compound	labelClass
Cc1c2c(nn1C1CC1(F)F)OCCCn1nc(Cl)c3cnc(nc31)N2 (configuration not stated)	no

Consider now this further compound.
### Prompt Threshold query (pIC50 >= 8) on Cc1c2c(nn1[C@H]1CCOC[C@@H]1F)OCCCn1nc(Cl)c3cnc(nc31)N2
### Response yes

---

Would you mind telling me the reported pIC50 of each entry?
- studyTarget: Leucine-rich repeat serine/threonine-protein kinase 2 [G2019S] (Homo sapiens, UniProt Q5S007, G2019S)
- procedureDetails: LRRK2 Wild-Type and G2019S Kinase Activity Assay
Numbers only, as −log10 of the molar value.

Please review the entries below; each comes with its answer.
compound	pIC50
Cc1c2c(nn1C1CCOC[C@]1(C)F)OCCCn1nc(Cl)c3cnc(nc31)N2 (some centres undefined)	7.74
CO[C@H]1CC[C@H](n2nc3c(c2Br)Nc2ncc4c(Cl)nn(c4n2)CCCO3)CC1	8.28

# batch size: 8; output pIC50 per entry
1. Cc1c2c(nn1C1CCOCC1)OCCCn1nc(Cl)c3cnc(nc31)N2
2. Clc1nn2c3nc(ncc13)Nc1c(nn([C@@H]3CCOC4(CC4)C3)c1Br)OCCC2
3. Cc1c2c(nn1C13CC(C(N)=O)(C1)C3)OCCCn1nc(Cl)c3cnc(nc31)N2
4. Cc1c2c(nn1C1CCCCOC1)OCCCn1nc(Cl)c3cnc(nc31)N2 (centres undefined)
5. Cc1c2c(nn1[C@H]1CCOC[C@@H]1F)OCCCn1nc(Cl)c3cnc(nc31)N2
6. CCc1c2c(nn1[C@@H]1CCOCC1F)OCCCn1nc(Cl)c3cnc(nc31)N2 (some centres undefined)
7. Cc1c2c(nn1[C@H]1CC1(F)F)OCCCn1nc(Cl)c3cnc(nc31)N2
8. F[C@@H]1COCC[C@H]1n1nc2c(c1Br)Nc1ncc3c(Cl)nn(c3n1)CCCO2

### Response
8.62
8.77
8.23
8.40
8.62
8.82
7.92
8.23

---

- studyTarget: Leucine-rich repeat serine/threonine-protein kinase 2 (Homo sapiens, UniProt Q5S007)
- procedureDetails: LRRK2 Wild-Type and G2019S Kinase Activity Assay
Define the label as Y when IC50 is strictly less than 0.01 µM and as N in all remaining cases.

Here are 3 compounds together with their reported answers.
compound	studyTarget	labelClass
Cc1c2c(nn1[C@@H]1CCCOC1)OCCCn1nc(Cl)c3cnc(nc31)N2 [US11780851, Example 61]	Leucine-rich repeat serine/threonine-protein kinase 2 (Homo sapiens, UniProt Q5S007)	Y
Cc1c2c(nn1[C@H]1CCO[C@@H](C)C1)OCCCn1nc(Cl)c3cnc(nc31)N2 [US11780851, Example 51]	Leucine-rich repeat serine/threonine-protein kinase 2 (Homo sapiens, UniProt Q5S007)	N
Cc1c2c(nn1[C@@H]1CCCOCC1)OCCCn1nc(Cl)c3cnc(nc31)N2 [US11780851, Example 59]	Leucine-rich repeat serine/threonine-protein kinase 2 (Homo sapiens, UniProt Q5S007)	N

Consider now this further compound.
### Prompt Is IC50 strictly under 0.01 µM for the entry Cc1c2c(nn1[C@@H]1CCO[C@@H](C)C1)OCCCn1nc(Cl)c3cnc(nc31)N2 [US11780851, Example 19] ?
### Response N
